- Tested on: MDR K. pneumoniae clinical isolates
- PROTOCOL_TEXT: Resistance phenotype (MICs of antibiotics) of MDR clinical isolates
- Format: cell-based, Klebsiella pneumoniae
- EXPERIMENTAL_CONDITIONS: Klebsiella pneumoniae, 116381; read-out: MIC
REPORTED_METRIC: MIC (µg/mL)
Use µg/mL as the unit, but write only the number.

The examples below pair each entry with its known result.
• CN(C)c1ccc(O)c2c1C[C@H]1C[C@H]3[C@H](N(C)C)C(O)=C(C(N)=O)C(=O)[C@@]3(O)C(O)=C1C2=O [Minocycline] = 64
• CC(C)(O/N=C(\C(=O)N[C@@H]1C(=O)N2C(C(=O)[O-])=C(C[n+]3ccccc3)CS[C@H]12)c1csc(N)n1)C(=O)O [Ceftazidime] = 8
• CO/N=C(\C(=O)N[C@@H]1C(=O)N2C(C(=O)[O-])=C(C[N+]3(C)CCCC3)CS[C@H]12)c1csc(N)n1 [CPM, cefepime] = 16

With those in mind, consider the next compound.
**Query** Param item = CN(C)[C@@H]1C(O)=C(C(N)=O)C(=O)[C@@]2(O)C(O)=C3C(=O)c4c(O)c(NC(=O)CN5CCCC5)cc(F)c4C[C@H]3C[C@@H]12 [ERC, eravacycline] ; retrieve measured MIC.
**Result** 0.5

###

- System: MDR P. aeruginosa clinical isolates
- PROTOCOL_TEXT: Resistance phenotype (MICs of antibiotics) of MDR clinical isolates
- Assay type: cell-based, Pseudomonas aeruginosa
- EXPERIMENTAL_CONDITIONS: Pseudomonas aeruginosa, 259-96196; read-out: MIC
REPORTED_METRIC: MIC (µg/mL)
Use µg/mL as the unit, but write only the number.

- NC[C@H]1O[C@H](O[C@H]2[C@H](O)[C@@H](O[C@H]3O[C@H](CO)[C@@H](O)[C@H](N)[C@H]3O)[C@H](N)C[C@@H]2N)[C@H](N)C[C@@H]1O [Tobramycin]: 256

With those in mind, consider the next molecule.
**Query** API: value(readout=MIC, system=MDR P. aeruginosa clinical isolates) for record CN(C)c1cc(CNCC(C)(C)C)c(O)c2c1C[C@H]1C[C@H]3[C@H](N(C)C)C(O)=C(C(N)=O)C(=O)[C@@]3(O)C(O)=C1C2=O [OMC, omadacycline]
**Result** 64

###

- Tested on: MDR P. aeruginosa clinical isolates
- PROTOCOL_TEXT: Resistance phenotype (MICs of antibiotics) of MDR clinical isolates
- Assay type: cell-based, Pseudomonas aeruginosa
- EXPERIMENTAL_CONDITIONS: Pseudomonas aeruginosa, 259-96196; read-out: MIC
The following compounds are shown together with reported MIC values.
Use µg/mL as the unit, but write only the number.

**Query** Param item = CN(C)c1cc(NC(=O)CNC(C)(C)C)c(O)c2c1C[C@H]1C[C@H]3[C@H](N(C)C)C(O)=C(C(N)=O)C(=O)[C@@]3(O)C(O)=C1C2=O ; retrieve measured MIC.
**Result** 32

**Query** What do you get for C[C@H]1c2cccc(O)c2C(=O)C2=C(O)[C@]3(O)C(=O)C(C(N)=O)=C(O)[C@@H](N(C)C)[C@@H]3[C@@H](O)[C@@H]21 ?
**Result** 32

**Query** What do you get for C[C@H]1[C@H](NC(=O)/C(=N\OC(C)(C)C(=O)O)c2csc(N)n2)C(=O)N1S(=O)(=O)O ?
**Result** 32

###

The following compounds are shown together with reported MICcombo values.
- System: wild-type P. aeruginosa PAO1
- PROTOCOL_TEXT: microbe, parasite or virus in culture
- Assay type: cell-based, Pseudomonas aeruginosa
- EXPERIMENTAL_CONDITIONS: PAO1; antibiotic with dUSTBβP 3 at 8 μg/mL
- Experimental: Overnight-grown bacterial culture diluted in saline to 0.5 McFarland turbidity was successively diluted 1:50 in MHB to achieve a final concentration of 5 × 10^5 CFU/mL for inoculation. […] Confirmation of turbidity was done using an EMax Plus microplate reader (Molecular Devices, United States) at a wavelength of 590 nm. […] Fractional inhibitory concentration index (FICI) is determined by adding the FICs of both antibiotic and adjuvant. […]
Use µg/mL as the unit, but write only the number.

The examples below pair each entry with its known result.
- CO[C@H]1/C=C/O[C@@]2(C)Oc3c(C)c(O)c4c(O)c(c(/C=N/N5CCN(C)CC5)c(O)c4c3C2=O)NC(=O)/C(C)=C\C=C\[C@H](C)[C@H](O)[C@@H](C)[C@@H](O)[C@@H](C)[C@H](OC(C)=O)[C@@H]1C: 0.25
- CNC(C)C1CCC(N)C(OC2C(N)CC(N)C(OC3OCC(C)(O)C(NC)C3O)C2O)O1 (stereo not drawn): 2

**Query** Param item = C[C@@H]1O[C@@H]1P(=O)(O)O ; retrieve measured MICcombo.
**Result** 2

###

- Tested on: MDR K. pneumoniae clinical isolates
- PROTOCOL_TEXT: Resistance phenotype (MICs of antibiotics) of MDR clinical isolates
- Format: cell-based, Klebsiella pneumoniae
- EXPERIMENTAL_CONDITIONS: Klebsiella pneumoniae, 113250; read-out: MIC
The following molecules are shown together with reported MIC values.

• Cc1nnc(SCC2=C(C(=O)O)N3C(=O)[C@@H](NC(=O)Cn4cnnn4)[C@H]3SC2)s1 = 1 µg/mL

**Query** Param item = NC[C@H]1O[C@H](O[C@H]2[C@H](O)[C@@H](O[C@H]3O[C@H](CO)[C@@H](O)[C@H](N)[C@H]3O)[C@H](N)C[C@@H]2N)[C@H](N)C[C@@H]1O ; retrieve measured MIC.
**Result** ≤ 0.5 µg/mL

**Query** What do you get for O=C(N[C@H](CO)[C@H](O)c1ccc([N+](=O)[O-])cc1)C(Cl)Cl ?
**Result** 4 µg/mL

**Query** What do you get for C[C@@H](O)[C@H]1C(=O)N2C(C(=O)O)=C(S[C@@H]3CN[C@H](C(=O)Nc4cccc(C(=O)O)c4)C3)[C@H](C)[C@H]12 ?
**Result** ≤ 0.03 µg/mL

###

- PROTOCOL_TEXT: in vitro
- Assay type: cell-based
- EXPERIMENTAL_CONDITIONS: human
REPORTED_METRIC: hemolysis at 45 min, 1.5625 µM (%)
Use % as the unit, but write only the number.

The examples below pair each entry with its known result.
* CCCCCCCC(=O)NC(CCCN)CC(=O)NCCCN(CCCNC(=O)CC(CCCN)NC(=O)CCCCCCC)CC(=O)NC(CCCN)CC(N)=O (stereo not drawn) | 3.11
* CCCCCCCC(=O)NC(CCCNC(=N)N)CC(=O)NCCCN(CCCNC(=O)CC(CCCNC(=N)N)NC(=O)CCCCCCC)CC(=O)NC(CCCNC(=N)N)CC(N)=O (stereo not drawn) | 3.23

With those in mind, consider the next compound.
**Query** Param item = CCCCCCCC(=O)NC(CCCCN)CC(=O)NCCCN(CCCNC(=O)CC(CCCCN)NC(=O)CCCCCCC)CC(=O)NC(CCCCN)CC(N)=O (stereo not drawn) ; retrieve measured hemolysis at 45 min, 1.5625 µM.
**Result** 3.33

###

- Test system: MDR A. baumannii clinical isolates
- PROTOCOL_TEXT: Resistance phenotype (MICs of antibiotics) of MDR clinical isolates
- Assay type: cell-based, Acinetobacter baumannii
- EXPERIMENTAL_CONDITIONS: Acinetobacter baumannii, AB031; read-out: MIC
The following compounds are shown together with reported MIC values.
Use µg/mL as the unit, but write only the number.

The examples below pair each entry with its known result.
• CO/N=C(\C(=O)N[C@@H]1C(=O)N2C(C(=O)O)=C(COC(C)=O)CS[C@H]12)c1csc(N)n1 [CTX, cefotaxime] = 16
• CN(C)c1ccc(O)c2c1C[C@H]1C[C@H]3[C@H](N(C)C)C(O)=C(C(N)=O)C(=O)[C@@]3(O)C(O)=C1C2=O [Minocycline] = 0.25
• CN(C)[C@@H]1C(O)=C(C(N)=O)C(=O)[C@@]2(O)C(O)=C3C(=O)c4c(O)c(NC(=O)CN5CCCC5)cc(F)c4C[C@H]3C[C@@H]12 [ERC, eravacycline] = 0.25
• O=C(N[C@H](CO)[C@H](O)c1ccc([N+](=O)[O-])cc1)C(Cl)Cl [Chloramphenicol] = 128
• NCC[C@H](O)C(=O)N[C@@H]1C[C@H](N)[C@@H](O[C@H]2O[C@H](CN)[C@@H](O)[C@H](O)[C@H]2O)[C@H](O)[C@H]1O[C@H]1O[C@H](CO)[C@@H](O)[C@H](N)[C@H]1O [AMK, amikacin] = 2
• CO/N=C(\C(=O)N[C@@H]1C(=O)N2C(C(=O)[O-])=C(C[N+]3(C)CCCC3)CS[C@H]12)c1csc(N)n1 [CPM, cefepime] = 4

With those in mind, consider the next compound.
**Query** Param item = C[C@@H](O)[C@H]1C(=O)N2C(C(=O)O)=C(SCCN=CN)C[C@H]12 [IMI, imipenem] ; retrieve measured MIC.
**Result** 0.25

Data provenance is paper PMC8733726.
